# STUDY TARGET: HIS-PDZ1-2 protein (PSD-95 PDZ1-2 tandem, residues 61-249, with tag …) (human), P78352
# ASSAY NAME: FP competition, fluorescent NR2B probe
// reported Ki for each item listed
MEASURED ENDPOINT: Ki (µM)

ESDV (modifications not checked) [ESDV (8)] : 28
IETAV (modifications not checked) [IETAV (82)] : 2.5

The reported measurements were obtained from patent US20160176924A1.
